# Target: T1, His-tagged PD-L1 protein (human, UniProt Q9NZQ7 19-238)
# T1 construct: also called His-tagged antigen PD-L1 protein; human PD-L1; not shown: His tag
# T1 sequence (Q9NZQ7 19-238 limits assumed): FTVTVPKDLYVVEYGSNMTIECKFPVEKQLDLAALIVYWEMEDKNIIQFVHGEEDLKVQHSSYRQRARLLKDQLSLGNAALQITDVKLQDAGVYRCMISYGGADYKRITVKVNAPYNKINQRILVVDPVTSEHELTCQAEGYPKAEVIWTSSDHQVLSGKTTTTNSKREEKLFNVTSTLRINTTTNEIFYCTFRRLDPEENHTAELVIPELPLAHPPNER
# Protocol Text: SPR, Biacore T200, multi-cycle; Fab captured on chip, His-tagged PD-L1 as analyte
Measure Name: kon (M⁻¹ s⁻¹)
Numeric answer only, unit M⁻¹ s⁻¹ assumed.

Before answering, review these 2 worked examples.
## Input For the binder shown here, AS01978 (humanized Fab) (Fab, V domains shown, Purified humanized Fab) VH: EVQLVQSGAEVKKPGESLKISCKGSGYSFTSYSINWVRQAPGKGLEWMGYFYVGNGYTDYNEKFKGRVTITTDESTSTAYMELSSLRSEDTAVYYCARGGLPYYFDYWGQGTLVTVSS VL: DIQLTQSPSSLSASVGDRVTITCKTSQDVNTAVAWYQQKPDQSPKLLIKWASTRHTGVPSRFSGSGSGTDFTLTISSLQPEDFATYYCQQHYNTPLTFGGGTKLEIK , give the reported kon.
## Output 290000

## Input For the binder shown here, AS01817 (humanized Fab) (Fab, V domains shown, Purified humanized Fab) VH: EVQLVQSGAEVKKPGESLKISCKGSGYSFTSYSINWVRQAPGKGLEWMGYFYVGNGYTDYNEKFKGRVTITRDTSASTAYMELSSLRSEDTAVYYCARGGLPYYFDYWGQGTLVTVSS VL: DIQLTQSPSFLSASVGDRVTITCKTSQDVNTAVAWYQQKPGQPPKLLIYWASTRHTGVPSRFSGSGSGTDFTLTISSLQPEDFATYYCQQHYNTPLTFGGGTKLEIK , give the reported kon.
## Output 340000

API: the following record is the query input.
## Input For the binder shown here, AS01807 (humanized Fab) (Fab, V domains shown, Purified humanized Fab) VH: QVQLVQSGSELKKPGASVKVSCKASGYTFTSYSINWVRQAPGKGLEWMGYFYVGNGYTDYNEKFKGRVTITRDTSASTAYMELSSLRSEDTAVYYCARGGLPYYFDYWGQGTLVTVSS VL: DIQMTQSPSSVSASVGDRVTITCKTSQDVNTAVAWYQQKPDQSPKLLIKWASTRHTGVPSRFSGSGSGTDFTLTISSLQPEDFATYYCQQHYNTPLTFGGGTKLEIK , give the reported kon.
## Output 260000
